- test method notes: Selectivity index, ratio of IC50 for human NFF cells to IC50 for asexual-stage of Plasmodium falciparum 3D7
- Format: toxicity
- test parameters: read-out: Ratio IC50
measured attribute: selectivity ratio
Simply state the number, no unit and no words.

## Task Consider the molecule `CC(C)(C)c1ccc(NC(=O)NOCCCCCC(=O)NO)cc1` and give its measured selectivity ratio.
## Result 31
